- System: Nucleic Acid
- experimental protocol: Activity against DNA binding in calf thymus was determined
- Type: nucleic-acid assay
- setup conditions: Bos taurus
property measured: K (M⁻¹)
Quick note: give the figure in M⁻¹, leave out the unit.

Which K value is on record for "CN(C)CCSc1nccc(-c2ccc(-c3ccnc(SCCN(C)C)n3)s2)n1" ?
1.3e+07

Which K value is on record for "CC[n+]1c(-c2ccccc2)c2cc(N)ccc2c2ccc(N)cc21" ?
900000

Which K value is on record for "CN(C)CCSc1nccc(-c2cccs2)n1" ?
18700

Which K value is on record for "CN(C)CCNc1nccc(-c2cccs2)n1" ?
4400

Measured values drawn from ChEMBL document CHEMBL1123809 for this set.
